The values you see were collected from patent US20060052369A1.

Biological target: ATPase of sub-mitochondrial particles (mitochondrial F1Fo-ATPase) (Bos taurus, UniProt P13621)
Construct: from tissue; host or cells: sub-mitochondrial particles (SMPs)
Assay: NADH-coupled ATP hydrolysis kinetics assay with sub-mitochondrial particles
Assay type: biochemical, bovine
Conditions: Non-competitive Inhibition model fit; binding when all three sites have substrate bound; read-out: Ki*
Experimental: The mechanism of inhibition for ATP hydrolysis induced by Bz-423 and derivatives of Bz-423 was assayed using an NADH-coupled assay. The ATP hydrolytic activity of the sub-mitochondrial particles (hereinafter SMPs) was measured by coupling the production of ADP to the oxidation of NADH via the pyruvate kinase and lactate dehydrogenase reaction. […] The 96-well plate was then placed at 30° C. in a Molecular Devices Versamax tunable microplate reader and allowed to incubate for 5 min. […]
READOUT NAME: Ki (µM)
Field format: number, assumed µM, no unit text.

Could you please provide reported Ki for CN1C(=O)C(Cc2ccc(OC(C)(C)C)cc2)N=C(c2ccc(O)cc2)c2cc(Cl)ccc21 (stereo not shown) ? Thanks!
12.7

* * *

Target: ATPase of sub-mitochondrial particles (mitochondrial F1Fo-ATPase) (Bos taurus, UniProt P13621)
Construct: from tissue; host or cells: sub-mitochondrial particles (SMPs)
Test: NADH-coupled ATP hydrolysis kinetics assay with sub-mitochondrial particles
Assay type: biochemical, bovine
Conditions: Ki*, Uncompetitive Inhibition model fit; binding when all three sites have substrate bound
READOUT NAME: pKi
API: returns pKi as number; meaning -log10 of concentration in mol/L.

Retrieve pKi measured for CN1C(=O)C(Cc2ccc3ccccc3c2)N=C(c2ccc(O)cc2)c2cc(Cl)ccc21 (centres unmarked) and print it.
4.72

Look up pKi of CN1C(=O)C(Cc2ccc(OC(C)(C)C)cc2)N=C(c2ccc(O)cc2)c2cc(Cl)ccc21 (centres unmarked) and report it.
4.90
